# maps each entry to its melting point

mol=O=C(O)CNS(=O)(=O)c1ccc(N/C(=C2\C(=O)Nc3ccccc32)c2ccccc2)cc1 endpoint_value="236 °C (dec.)"
mol=CN(c1ccc(N/C(=C2\C(=O)Nc3ccccc32)c2ccccc2)cc1)S(=O)(=O)CCN1CCOCC1 endpoint_value="115 to 117 °C"
mol=CC(=O)NCc1ccc(/C(Nc2cccc(N(CC(N)=O)S(C)(=O)=O)c2)=C2/C(=O)Nc3ccccc32)cc1 endpoint_value="215 °C"
mol=CN(C)Cc1ccc(N/C(=C2\C(=O)Nc3ccc([N+](=O)[O-])cc32)c2ccc([N+](=O)[O-])cc2)cc1 endpoint_value="233 °C"
mol=CN(C)CCNc1ccc(N/C(=C2\C(=O)Nc3ccccc32)c2ccccc2)cc1 endpoint_value="258 to 260 °C"
mol=CN(C)CCc1ccc(N/C(=C2\C(=O)Nc3ccc([N+](=O)[O-])cc32)c2ccccc2)cc1 endpoint_value="238 to 240 °C"

Kindly note the recorded melting point for `CCCCNC(=O)Nc1ccc(N/C(=C2\C(=O)Nc3ccccc32)c2ccccc2)cc1` , which is 216 to 217 °C

Kindly note the recorded melting point for `NC(CCO)(CCO)c1ccc(N/C(=C2\C(=O)Nc3ccc([N+](=O)[O-])cc32)c2ccccc2)cc1` , which is 196 to 198 °C

Kindly note the recorded melting point for `O=C1Nc2ccc([N+](=O)[O-])cc2/C1=C(/Nc1ccc(CN2CCCCC2)cc1)c1ccc(Cn2ccnc2)cc1` , which is 226 to 228 °C

Kindly note the recorded melting point for `Cl.O=C1Nc2ccc([N+](=O)[O-])cc2/C1=C(/Nc1ccc(CNCc2ccccc2)cc1)c1ccccc1` , which is 298 to 300 °C

Kindly note the recorded melting point for `CCS(=O)(=O)N(CC(=O)N(C)CCN(C)C)c1ccc(N/C(=C2\C(=O)Nc3ccccc32)c2ccccc2)cc1` , which is 170 to 172 °C

Kindly note the recorded melting point for `CN(C(=C1C(=O)Nc2ccccc21)c1ccccc1)c1ccc(C#N)cc1` , which is 239 °C

Kindly note the recorded melting point for `CC(=O)c1ccc(N/C(=C2\C(=O)Nc3ccccc32)c2ccccc2)cc1` , which is 207 to 209 °C

Kindly note the recorded melting point for `CC(C)(C)OC(=O)NCC(=O)NCc1ccc(N/C(=C2\C(=O)Nc3ccccc32)c2ccccc2)cc1` , which is 218 to 220 °C

Kindly note the recorded melting point for `CN(C)Cc1ccc(N/C(=C2\C(=O)Nc3ccccc32)c2ccc(Cl)cc2)cc1` , which is 213 °C

Kindly note the recorded melting point for `CN(CCN1CCOCC1)CC(=O)N(C)c1ccc(N/C(=C2\C(=O)Nc3ccccc32)c2ccccc2)cc1` , which is 116 to 118 °C

Kindly note the recorded melting point for `C[C@@H](N)c1ccc(N/C(=C2\C(=O)Nc3ccc([N+](=O)[O-])cc32)c2ccccc2)cc1.Cl` , which is 230 to 235 °C

Kindly note the recorded melting point for `CCOC(=O)c1cccc(N/C(=C2\C(=O)Nc3ccccc32)c2ccccc2)c1` , which is 194 to 195 °C

Kindly note the recorded melting point for `CN(c1ccc(N/C(=C2\C(=O)Nc3ccccc32)c2ccccc2)cc1)S(=O)(=O)CCN1CCCCC1` , which is 121 to 123 °C
